# Run description: Cellular toxicity, same assay as Example B.4 without TAM (Example B.5)
# Assay type: cell-based
# Condition parameters: mouse; Pfa1 cells without TAM; read-out: TC50 (the source's name)
The following compounds are listed with their measured CC50 values.

As a guide, the following entries are already answered.
>>> assay_value("Clc1cccc(CNC2=Nc3ccccc3NC23CCOCC3)c1")
"20 to 50 µM"
>>> assay_value("Clc1ccc(CNC2=Nc3ccccc3NC23CCCCC3)cc1")
"20 to 50 µM"
>>> assay_value("Fc1cccc(CNC2=Nc3ccccc3NC23CCCCC3)c1")
"20 to 50 µM"
>>> assay_value("CC(C)(C)c1ccc(CNC2=Nc3ccccc3NC23CCCCC3)cc1")
"5 to 10 µM"
>>> assay_value("O=S1(=O)CCC2(CC1)Nc1ccccc1N=C2NCc1ccccc1")
"10 to 20 µM"
>>> assay_value("CN1CCC2(CC1)Nc1ccccc1N=C2NCc1ccc(Cl)cc1")
"5 to 10 µM"
>>> assay_value("Cc1cccc(CNC2=Nc3cc(Cl)c(Cl)cc3NC23CCOCC3)c1")
"20 to 50 µM"
>>> assay_value("Clc1cccc(CNC2=Nc3cc(Cl)c(Cl)cc3NC23CCCCCC3)c1")
"20 to 50 µM"
>>> assay_value("Clc1cc2c(cc1Cl)NC1(CCNCC1)C(NCc1ccccc1Cl)=N2")
"0.5 to 1 µM"
>>> assay_value("Fc1cc2c(cc1F)NC1(CCNCC1)C(NCc1cccc(Cl)c1)=N2")
"1 to 2 µM"

# ---- query compound ----
Query: I would be grateful if you could share the reported CC50 for CC(CCc1ccccc1)NC1=Nc2ccccc2NC12CCNCC2 (stereo not drawn) .
Reply: 20 to 50 µM

* * *

# Run description: Cellular toxicity, same assay as Example B.4 without TAM (Example B.5)
# Assay type: cell-based
# Condition parameters: mouse; Pfa1 cells without TAM; read-out: TC50 (the source's name)
Quantity measured: CC50

As a guide, the following entries are already answered.
>>> assay_value("Clc1cccc(CNC2=Nc3cc(Cl)c(Cl)cc3NC23CCOCC3)c1")
"10 to 20 µM"
>>> assay_value("Fc1ccc(CNC2=Nc3ccccc3NC23CCNCC3)c(F)c1")
"20 to 50 µM"

Query: I would be grateful if you could share the reported CC50 for Clc1cccc(CNC2=Nc3cc4c(cc3NC23CCCCC3)OCCO4)c1 .
Reply: 20 to 50 µM

Query: I would be grateful if you could share the reported CC50 for COc1cccc(CNC2=Nc3ccccc3NC23CCOCC3)c1 .
Reply: 50 to 100 µM

Query: I would be grateful if you could share the reported CC50 for c1ccc(C(CNC2=Nc3ccccc3NC23CCOCC3)c2ccccc2)cc1 .
Reply: 20 to 50 µM

Query: I would be grateful if you could share the reported CC50 for Clc1cc2c(cc1Cl)NC1(CCNCC1)C(NCc1ccccc1)=N2 .
Reply: 1 to 2 µM

Query: I would be grateful if you could share the reported CC50 for Clc1ccccc1CNC1=Nc2ccccc2NC12CCOCC2 .
Reply: 50 to 100 µM

* * *

# Tested on: human neuroblastoma cell line SH-SY5Y
# Run description: Inhibition of BSO-induced non-apoptotic cell death (Example B.1)
# Type: cell-based
# Condition parameters: SH-SY5Y cells, 50 μM BSO, 72 hours, read-out: SH-SY5Y/BSO IC50
The following compounds are listed with their measured IC50 values.

As a guide, the following entries are already answered.
>>> assay_value("c1ccc(CNC2=Nc3ccccc3NC23CCCCCC3)cc1")
"< 500 nM"
>>> assay_value("Cc1cccc(CNC2=Nc3cc(Cl)c(Cl)cc3NC23CCCCCC3)c1")
"< 100 nM"
>>> assay_value("Cc1cc(C)cc(CNC2=Nc3ccccc3NC23CCNCC3)c1")
"< 50 nM"
>>> assay_value("FC(F)(F)c1ccc2c(c1)N=C(NCc1ccccc1)C1(CCCCC1)N2")
"< 100 nM"
>>> assay_value("Clc1cccc(CNC2=Nc3ccccc3NC23CCSCC3)c1")
"< 100 nM"
>>> assay_value("CCCCCCCCCCCCN1CCC2(CC1)Nc1ccccc1N=C2NCc1ccccc1")
"< 20 nM"

Query: I would be grateful if you could share the reported IC50 for Clc1cc2c(cc1Cl)NC1(CCNCC1)C(NCc1ccccc1)=N2 .
Reply: < 20 nM

* * *

# Run description: Cellular toxicity, same assay as Example B.4 without TAM (Example B.5)
# Format: cell-based
# Condition parameters: mouse; Pfa1 cells without TAM; read-out: TC50 (the source's name)
Quantity measured: CC50

>>> assay_value("c1ccc(CCCCNC2=Nc3ccccc3NC23CCNCC3)cc1 [N-225]")
"1 to 2 µM"
>>> assay_value("Fc1cccc(CNC2=Nc3ccccc3NC23CCNCC3)c1 [N-5]")
"5 to 10 µM"
>>> assay_value("Fc1cc2c(cc1F)NC1(CCNCC1)C(NCc1ccccc1Cl)=N2 [N-259]")
"1 to 2 µM"
>>> assay_value("Cc1cc2c(cc1C)NC1(CCNCC1)C(NCc1cccc(C(F)(F)F)c1)=N2 [N-251]")
"0.5 to 1 µM"
>>> assay_value("Fc1ccc(CNC2=Nc3cc(Cl)c(Cl)cc3NC23CCCCC3)c(F)c1 [C-265]")
"10 to 20 µM"

Query: I would be grateful if you could share the reported CC50 for Fc1cccc(F)c1CNC1=Nc2ccccc2NC12CCCCC2 [C-222] .
Reply: 20 to 50 µM

Query: I would be grateful if you could share the reported CC50 for CC1CCC2(CC1)Nc1ccccc1N=C2NCc1ccccc1Cl (stereo not shown) [C-91] .
Reply: 10 to 20 µM

Query: I would be grateful if you could share the reported CC50 for CN1CCC2(CC1)Nc1cc(F)c(F)cc1N=C2NCc1ccccc1 [N-229] .
Reply: 5 to 10 µM

Query: I would be grateful if you could share the reported CC50 for Clc1ccc(CNC2=Nc3cc(Cl)c(Cl)cc3NC23CCNCC3)cc1 [N-208] .
Reply: 0.5 to 1 µM

Query: I would be grateful if you could share the reported CC50 for CC(CCc1ccccc1)NC1=Nc2ccccc2NC12CCOCC2 (stereo not shown) [O/S-353] .
Reply: 20 to 50 µM

* * *

# System: human neuroblastoma cell line SH-SY5Y
# Run description: Inhibition of BSO-induced non-apoptotic cell death (Example B.1)
# Format: cell-based
# Condition parameters: SH-SY5Y cells, 50 μM BSO, 72 hours, read-out: SH-SY5Y/BSO IC50
The following molecules are listed with their measured IC50 values.

>>> assay_value("O=S1(=O)CCC2(CC1)Nc1ccccc1N=C2NCc1ccccc1")
"< 2000 nM"
>>> assay_value("Clc1cccc(CNC2=Nc3ccccc3NC23CCCCCC3)c1")
"< 50 nM"
>>> assay_value("Cc1cc(C)cc(CNC2=Nc3cc(Cl)c(Cl)cc3NC23CCCCCC3)c1")
"< 100 nM"

# ---- query molecule ----
Query: I would be grateful if you could share the reported IC50 for CC1CC2(CCN1)Nc1ccccc1N=C2NCc1ccccc1 (stereo not shown) .
Reply: < 100 nM

* * *

# System: human neuroblastoma cell line SH-SY5Y
# Run description: Inhibition of BSO-induced non-apoptotic cell death (Example B.1)
# Format: cell-based
# Condition parameters: SH-SY5Y cells, 50 μM BSO, 72 hours, read-out: SH-SY5Y/BSO IC50
The following molecules are listed with their measured IC50 values.

As a guide, the following entries are already answered.
>>> assay_value("CC1CCC2(CC1)Nc1ccccc1N=C2NCc1ccccc1Cl (centres unmarked)")
"< 20 nM"
>>> assay_value("Clc1ccc(CNC2=Nc3ccccc3NC23CCOCC3)cc1Cl")
"< 100 nM"
>>> assay_value("CC(=O)NC1CCC2(CC1)Nc1ccccc1N=C2NCc1ccccc1 (centres unmarked)")
"< 1000 nM"
>>> assay_value("Clc1ccc2c(c1)N=C(NCc1ccccc1)C1(CCCCC1)N2")
"< 50 nM"

# ---- query molecule ----
Query: I would be grateful if you could share the reported IC50 for Clc1ccc(CNC2=Nc3cc(Cl)c(Cl)cc3NC23CCNCC3)cc1Cl .
Reply: < 20 nM

* * *

# Test system: Pfa1 cells
# Run description: Inhibition of non-apoptotic cell death after tamoxifen-induced GPx4 knockout in a recombinant cell line (Example B.4)
# Format: cell-based
# Condition parameters: Mus musculus, read-out: Pfa1/TAM IC50
The following molecules are listed with their measured IC50 values.

Query: Find IC50 (Pfa1 cells) for the entry Cc1cc2c(cc1C)NC1(CCNCC1)C(NCc1ccc(Cl)cc1)=N2
Reply: < 10 nM

Query: Find IC50 (Pfa1 cells) for the entry CC(C)(C)c1ccc(CNC2=Nc3ccccc3NC23CCOCC3)cc1
Reply: < 500 nM

Query: Find IC50 (Pfa1 cells) for the entry CC(C)(C)c1ccc(CNC2=Nc3ccccc3NC23CCNCC3)cc1
Reply: < 10 nM

Query: Find IC50 (Pfa1 cells) for the entry Clc1cccc(CNC2=Nc3cc(Cl)c(Cl)cc3NC23CCOCC3)c1
Reply: < 50 nM

Query: Find IC50 (Pfa1 cells) for the entry Cc1cc2c(cc1C)NC1(CCCCCC1)C(NCc1ccccc1)=N2
Reply: < 200 nM
